Recorded values, source ChEMBL document CHEMBL4152354.

Reported inhibition zone (IZ) values are given for each entry in this list.
Tested on: Streptococcus pyogenes
protocolText: Antibacterial activity against Streptococcus pyogenes MTCC 1925 assessed as zone of inhibition at 100 uL after 24 hrs by agar well-diffusion method
Format: functional
Give the value in mm but do not write mm after it.

A selection of reference data follows.
compound	displayUnit	inhibition zone (IZ)
CCC(C1=C(O)CC(C)(C)CC1=O)C1=C(O)CC(C)(C)CC1=O	mm	0
CC1(C)CC(=O)C(C(C2=C(O)CC(C)(C)CC2=O)c2ccc(Br)cc2)=C(O)C1	mm	10
Cc1[nH][nH]c(=O)c1C(c1cccc(F)c1)C1C(=O)NC(=O)NC1=O (stereo not given)	mm	15
O=c1oc2ccccc2c(O)c1C(c1cccc(Br)c1)c1c(O)c2ccccc2oc1=O	mm	21
Cc1ccc(C(c2c(C)[nH][nH]c2=O)C2C(=O)NC(=O)NC2=O)cc1 (stereo not given)	mm	11
Cc1ccc(C(C2=C(O)CC(C)(C)CC2=O)C2=C(O)CC(C)(C)CC2=O)cc1	mm	0
Cc1[nH][nH]c(=O)c1C(c1ccccc1[N+](=O)[O-])C1C(=O)NC(=O)NC1=O (stereo not given)	mm	12
COc1cc(C(c2c(C)[nH][nH]c2=O)C2C(=O)NC(=O)NC2=O)ccc1O (stereo not given)	mm	16
COc1cc(C(c2c(C)[nH][nH]c2=O)C2C(=O)NC(=O)NC2=O)cc(OC)c1OC (stereo not given)	mm	17

Turning to the following compound.
Exercise: Consider the compound shown here: Cc1[nH][nH]c(=O)c1C(c1ccc(Cl)cc1)C1C(=O)NC(=O)NC1=O (stereo not given) What is its recorded inhibition zone (IZ)?
Solution: 16

* * *

System: Klebsiella pneumoniae
protocolText: Antibacterial activity against Klebsiella pneumoniae MTCC 109 assessed as zone of inhibition at 100 uL after 24 hrs by agar well-diffusion method
Format: functional
Reported inhibition zone (IZ) values for a set of compounds
State the value, then name its unit.

compound	systemUnderTest	inhibition zone (IZ)
CC1(C)CC(=O)C(C(C2=C(O)CC(C)(C)CC2=O)c2ccc(Cl)cc2)=C(O)C1	Klebsiella pneumoniae	0 mm
CCC(C1=C(O)CC(C)(C)CC1=O)C1=C(O)CC(C)(C)CC1=O	Klebsiella pneumoniae	0 mm
O=C(N[C@H](CO)[C@H](O)c1ccc([N+](=O)[O-])cc1)C(Cl)Cl	Klebsiella pneumoniae	33 mm
CN(C)c1ccc(C(C2=C(O)CC(C)(C)CC2=O)C2=C(O)CC(C)(C)CC2=O)cc1	Klebsiella pneumoniae	0 mm

# input for lookup
Exercise: Quick check: inhibition zone (IZ) of Cc1ccc(C(c2c(C)[nH][nH]c2=O)C2C(=O)NC(=O)NC2=O)cc1 (stereo not given) ?
Solution: 10 mm

* * *

Tested on: Klebsiella pneumoniae
protocolText: Antibacterial activity against Klebsiella pneumoniae MTCC 109 after 18 hrs by TTC staining based broth microdilution method
Type: functional
recordedConditions: MTCC 109, 18 h
quantityMeasured: MIC
Please provide the amount together with its unit, number first.

Known MIC results, listed for orientation:
compound	observedResult
COc1ccc(C(c2c(O)c3ccccc3oc2=O)c2c(O)c3ccccc3oc2=O)cc1OC	780 µg/mL
Cc1[nH][nH]c(=O)c1C(c1ccc(Br)cc1)C1C(=O)NC(=O)NC1=O (centres undefined)	780 µg/mL
O=c1oc2ccccc2c(O)c1C(c1cccc(F)c1)c1c(O)c2ccccc2oc1=O	390 µg/mL
O=c1oc2ccccc2c(O)c1C(c1ccccc1Cl)c1c(O)c2ccccc2oc1=O	190 µg/mL
COc1cc(C(c2c(C)[nH][nH]c2=O)C2C(=O)NC(=O)NC2=O)cc(OC)c1OC (centres undefined)	390 µg/mL
O=c1oc2ccccc2c(O)c1C(c1ccccc1)c1c(O)c2ccccc2oc1=O	190 µg/mL

Exercise: Fill blank: measured MIC of the compound O=c1oc2ccccc2c(O)c1C(c1ccc(Cl)cc1)c1c(O)c2ccccc2oc1=O is ____.
Solution: 190 µg/mL

Exercise: Next record, please: Cc1ccc(C(c2c(C)[nH][nH]c2=O)C2C(=O)NC(=O)NC2=O)cc1 (centres undefined)
Solution: 3120 µg/mL

Exercise: Another: Cc1[nH][nH]c(=O)c1C(c1cccc([N+](=O)[O-])c1)C1C(=O)NC(=O)NC1=O (centres undefined)
Solution: 780 µg/mL

* * *

Each record here notes measured inhibition zone (IZ).
Tested on: Klebsiella pneumoniae
protocolText: Antibacterial activity against Klebsiella pneumoniae MTCC 109 assessed as zone of inhibition at 100 uL after 24 hrs by agar well-diffusion method
Type: functional
Supply the numeric figure in mm, leaving out any unit text.

Here are 5 molecules together with their reported answers.
molecule	systemUnderTest	inhibition zone (IZ) (mm)
CC1(C)CC(=O)C(C(C2=C(O)CC(C)(C)CC2=O)c2ccccc2)=C(O)C1	Klebsiella pneumoniae	0
COc1ccc(C(C2=C(O)CC(C)(C)CC2=O)C2=C(O)CC(C)(C)CC2=O)cc1OC	Klebsiella pneumoniae	0
COc1ccc(C(c2c(C)[nH][nH]c2=O)C2C(=O)NC(=O)NC2=O)cc1OC (stereo unspecified)	Klebsiella pneumoniae	21
Cc1[nH][nH]c(=O)c1C(c1ccc(Br)cc1)C1C(=O)NC(=O)NC1=O (stereo unspecified)	Klebsiella pneumoniae	15
COc1ccc(C(c2c(O)c3ccccc3oc2=O)c2c(O)c3ccccc3oc2=O)cc1OC	Klebsiella pneumoniae	18

Would you kindly look at the next entry?
Exercise: // query inhibition zone (IZ) value for entry Cc1ccc(C(C2=C(O)CC(C)(C)CC2=O)C2=C(O)CC(C)(C)CC2=O)cc1
Solution: 0

* * *

Tested on: Klebsiella pneumoniae
protocolText: Antibacterial activity against Klebsiella pneumoniae MTCC 109 assessed as zone of inhibition at 100 uL after 24 hrs by agar well-diffusion method
Assay type: functional
quantityMeasured: inhibition zone (IZ)
Write the numeric value and follow it with the unit.

Solved entries:
molecule	inhibition zone (IZ)
Cc1[nH][nH]c(=O)c1C(c1cccc(F)c1)C1C(=O)NC(=O)NC1=O (centres undefined)	20 mm
O=c1oc2ccccc2c(O)c1C(c1ccc(Cl)cc1)c1c(O)c2ccccc2oc1=O	25 mm
COc1ccc(C(c2c(C)[nH][nH]c2=O)C2C(=O)NC(=O)NC2=O)cc1 (centres undefined)	11 mm

Now look at this entry.
Exercise: // fetch Klebsiella pneumoniae inhibition zone (IZ) for COc1cc(C(c2c(C)[nH][nH]c2=O)C2C(=O)NC(=O)NC2=O)ccc1O (centres undefined)
Solution: 16 mm

* * *

We begin with a simple list: items and their reported inhibition zone (IZ).
System: Streptococcus pyogenes
protocolText: Antibacterial activity against Streptococcus pyogenes MTCC 1925 assessed as zone of inhibition at 100 uL after 24 hrs by agar well-diffusion method
Type: functional
Quick note: give the figure in mm, leave out the unit.

Completed entries (count: 4):
compoundStructureString	inhibition zone (IZ) [mm]
O=c1oc2ccccc2c(O)c1C(c1ccco1)c1c(O)c2ccccc2oc1=O	18
CC1(C)CC(=O)C(C(C2=C(O)CC(C)(C)CC2=O)c2ccc([N+](=O)[O-])cc2)=C(O)C1	0
Cc1ccc(C(c2c(O)c3ccccc3oc2=O)c2c(O)c3ccccc3oc2=O)cc1	25
COc1ccc(C(C2=C(O)CC(C)(C)CC2=O)C2=C(O)CC(C)(C)CC2=O)cc1OC	0

Here is another molecule to look at.
Exercise: Fill blank: measured inhibition zone (IZ) of the molecule CC1(C)CC(=O)C(C(C2=C(O)CC(C)(C)CC2=O)c2cccc(F)c2)=C(O)C1 is ____.
Solution: 0

* * *

System: Bacillus cereus
protocolText: Antibacterial activity against Bacillus cereus MTCC 430 after 18 hrs by TTC staining based broth microdilution method
Format: functional
recordedConditions: MTCC 430, 18 h
// log10 of MIC lookup, one value per entry
Each number you see is log10 of MIC, and the unit inside the log is µg/mL.

These recorded examples may help you get a feel for the data.
compound	quantityMeasured	observedResult
O=c1oc2ccccc2c(O)c1C(c1ccc(Cl)cc1)c1c(O)c2ccccc2oc1=O	log10 of MIC	2.59
COc1ccc(C(c2c(C)[nH][nH]c2=O)C2C(=O)NC(=O)NC2=O)cc1OC (stereo not drawn)	log10 of MIC	2.89

Exercise: Fill in the blank: the reported log10 of MIC of COc1ccc(C(c2c(C)[nH][nH]c2=O)C2C(=O)NC(=O)NC2=O)cc1 (stereo not drawn) is ____.
Solution: 3.80

Exercise: Consider next the compound Cc1ccc(C(c2c(O)c3ccccc3oc2=O)c2c(O)c3ccccc3oc2=O)cc1 in the same way.
Solution: 2.59

Exercise: Continue with O=c1oc2ccccc2c(O)c1C(c1ccc([N+](=O)[O-])cc1)c1c(O)c2ccccc2oc1=O
Solution: 2.89

* * *

System: Klebsiella pneumoniae
protocolText: Antibacterial activity against Klebsiella pneumoniae MTCC 109 assessed as zone of inhibition at 100 uL after 24 hrs by agar well-diffusion method
Assay type: functional
# inhibition zone (IZ) per entry
Kindly write the number and append the unit.

compound	quantityMeasured	observedResult
O=c1oc2ccccc2c(O)c1C(c1ccc([N+](=O)[O-])cc1)c1c(O)c2ccccc2oc1=O	inhibition zone (IZ)	19 mm
O=c1oc2ccccc2c(O)c1C(c1cccc(Br)c1)c1c(O)c2ccccc2oc1=O	inhibition zone (IZ)	20 mm
CC1(C)CC(=O)C(C(C2=C(O)CC(C)(C)CC2=O)c2ccc(Br)cc2)=C(O)C1	inhibition zone (IZ)	11 mm
Cc1[nH][nH]c(=O)c1C(c1ccccc1[N+](=O)[O-])C1C(=O)NC(=O)NC1=O (centres undefined)	inhibition zone (IZ)	13 mm
Cc1[nH][nH]c(=O)c1C(c1cccc([N+](=O)[O-])c1)C1C(=O)NC(=O)NC1=O (centres undefined)	inhibition zone (IZ)	15 mm
CCOc1ccc(C(C2=C(O)CC(C)(C)CC2=O)C2=C(O)CC(C)(C)CC2=O)cc1	inhibition zone (IZ)	0 mm

Exercise: Short answer please: inhibition zone (IZ), Klebsiella pneumoniae, entry O=c1oc2ccccc2c(O)c1C(c1cccc(F)c1)c1c(O)c2ccccc2oc1=O
Solution: 21 mm

Exercise: Same again, this time with Cc1ccc(C(c2c(O)c3ccccc3oc2=O)c2c(O)c3ccccc3oc2=O)cc1
Solution: 20 mm

Exercise: Next: O=c1oc2ccccc2c(O)c1C(c1ccccc1Cl)c1c(O)c2ccccc2oc1=O
Solution: 24 mm
